tested on: M. marinum in BV2 microglial cells; type: cell-based, Mycobacterium marinum
measured-parameter: IC50 (µM)
Return type: number; implicit unit µM.

# molecule, value-observed
records = [
    ("Cc1ccc2nc(C)c(C(=O)NCc3ccco3)n2c1 [GSK1829819A]", 3.9),
    ("Cc1occc1C(=O)Nc1nc(-c2ccccn2)nc2ccsc12 [GSK237561A]", 3.9),
    ("Nc1cccnc1Nc1ccc(Cl)cc1 [GR135486X]", 10.8),
]

// Input: Br.CC1(C)N=C(N)N=C(N)N1OCCc1ccc2ccccc2c1 [BRL-8088SA] . Output its IC50 only. 2.81

Write down IC50 measured for item O=C(NC12CC3CC(CC(C3)C1)C2)c1cc2cc(Cl)ccc2[nH]1 [GW623128X] 4.92

Give a short answer stating reported IC50 for Nc1nc(N)c2c(Sc3ccc4ccccc4c3)cccc2n1 [GW369335X] . 4.87

For the molecule Cn1ccnc1CNCCS(=O)(=O)c1cccc(Nc2ccc(-c3cccc(F)c3)cn2)c1 [GSK1826247A] , report IC50. 7.73

Name the recorded IC50 of the item Br.CCc1ccccc1OCCCON1C(=N)N=C(N)NC1(C)C [BRL-10143SA] in your answer. 4.19

For `COc1cc(CN2CCC3(C=Cc4ccccc43)CC2)cc2c1OCO2` , write its IC50. 16.8
